target: GTPase HRas (Homo sapiens, UniProt P01112); experiment: Inhibition of recombinant N-terminal His-tagged H-Ras (unknown origin) expressed in Escherichia coli M15 assessed as inhibition of human Sos1-mediated nucleotide exchange after 300 secs by luminescence spectrophotometry
Sequence (P01112 whole entry): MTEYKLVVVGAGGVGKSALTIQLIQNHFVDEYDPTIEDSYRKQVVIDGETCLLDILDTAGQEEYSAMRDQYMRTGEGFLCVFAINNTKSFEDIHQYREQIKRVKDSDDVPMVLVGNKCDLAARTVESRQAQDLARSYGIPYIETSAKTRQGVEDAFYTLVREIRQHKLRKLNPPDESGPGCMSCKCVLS
Value type: IC50 (µM)
Response body: numeric value in µM, unit text excluded.

Supply IC50 value. Item: CC(=O)N[C@H]1C(N(Cc2ccc(O)c(O)c2)OCc2ccccc2)O[C@H](CO)[C@@H](O)[C@@H]1O (stereo partly specified) 122

###

Assay system GTPase HRas (Homo sapiens, UniProt P01112); read-out recorded as pKd.
The value called pKd is obtained by taking minus log10 of the concentration in mol/L.

Supply pKd value. Item: OC[C@H]1OC(N(Cc2ccc(O)c(O)c2)OCc2ccccc2)[C@H](O)[C@@H](O)[C@@H]1O (some centres not stated) 5.02

Supply pKd value. Item: Oc1ccc(CNOCc2ccccc2)cc1O 4.67

###

biological target: GTPase HRas (Homo sapiens); assay: Inhibition of recombinant N-terminal His-tagged H-Ras (unknown origin) expressed in Escherichia coli M15 assessed as inhibition of GEF-mediated nucleotide exchange after 300 secs by luminescence spectrophotometry
Please go through the items and note down their IC50.
Record the result as number plus unit.

Specify the recorded IC50 for OC[C@H]1O[C@@H](O[C@H]2[C@H](O)[C@@H](O)C(N(Cc3ccc(O)c(O)c3)OCc3ccccc3)O[C@@H]2CO)[C@H](O)[C@@H](O)[C@H]1O (some centres undefined) , system: GTPase HRas (Homo sapiens). 100 µM

Specify the recorded IC50 for OC[C@H]1OC(N(Cc2ccc(O)c(O)c2)OCc2ccccc2)[C@H](O)[C@@H](O)[C@@H]1O (some centres undefined) , system: GTPase HRas (Homo sapiens). 80 µM

Specify the recorded IC50 for CC(=O)N[C@H]1C(N(Cc2ccc(O)c(O)c2)OCc2ccccc2)O[C@H](CO)[C@@H](O)[C@@H]1O (some centres undefined) , system: GTPase HRas (Homo sapiens). 80 µM

Specify the recorded IC50 for Oc1ccc(CNOCc2ccccc2)cc1O , system: GTPase HRas (Homo sapiens). 320 µM
